Reference source for all entries: patent US8952021B2

quantity name: melting point

compound: Cc1cc(-c2nc3ccccc3c(=O)n2-c2ccc(I)cc2)cc(C)c1OCCO [Example 8]
melting point: 101 to 103 °C

compound: Cc1cc(-c2nc3ccccc3c(=O)n2-c2ccc(F)cc2)cc(C)c1OCCO [Example 7]
melting point: 95 to 97 °C

(Q) Can you look up the measured melting point of CCC(C)c1ccc(-n2c(-c3cc(C)c(OCCO)c(C)c3)nc3ccc(OC)cc3c2=O)cc1 (stereo not shown) [Example 13] for me?
(A) 152 to 154 °C

(Q) Sample CCC(C)c1ccc(-n2c(-c3cc(C)c(OCCO)c(C)c3)nc3c(OC)cccc3c2=O)cc1 (stereo not shown) [Example 14] — what was its melting point?
(A) 158 to 159 °C

(Q) Quick one: melting point for CCC(C)c1ccc(-n2c(-c3cc(C)c(OCCO)c(C)c3)nc3ccccc3c2=O)cc1 (stereo not shown) [Example 1 and 2] ?
(A) 152 to 153 °C

(Q) Value lookup for melting point; key = COc1ccc2nc(-c3cc(C)c(OCCO)c(C)c3)n(-c3ccc(Br)cc3)c(=O)c2c1 [Example 16]
(A) 160 to 162 °C

(Q) I have this compound here, CCC(C)c1ccc(-n2c(-c3ccc(OCCO)cc3)nc3ccccc3c2=O)cc1 (stereo not shown) [Example 6] , and I need its recorded melting point.
(A) 172.8 to 174.9 °C

(Q) Record request: melting point value, item CCC(C)c1ccc(-n2c(-c3cc(C)c(OCCO)c(C)c3)nc3ccncc3c2=O)cc1 (stereo not shown) [Example 5]
(A) 195 to 196 °C
